Conditions: 308.15 K; 101 kPa; Liquid; Pycnometric method
property.label: mass density (kg/m3)
Numeric answer only, unit kg/m3 assumed.

Here are 3 compounds together with their reported answers.
CCCCCCO: 808.5
Cc1ccccc1C: 866.7
Cc1cccc(C)c1: 851.3

Kindly consider the entry below.
The reported value for Cc1ccc(C)cc1 in terms of mass density is 848.2

====

Settings: 308.15 K; 101 kPa; Liquid; Capillary tube (Ostwald / Ubbelohde) method
property.label: viscosity (mPa·s)
Answer format: numeric, mPa·s implied, no suffix.

// worked examples, viscosity included
Cc1cccc(C)c1: 0.521
Cc1ccc(C)cc1: 0.541
CCCCCCO: 3.318

Alright, here's another compound for you.
Entry Cc1ccccc1C ; viscosity = 0.666
